target: hSTING-R232 (Homo sapiens (Human), UniProt Q86WV6, H232R); test: STING differential scanning fluorimetry (DSF) assay, WT human STING; details: WT (R232) human STING aa140-379, net shift in melting temperature
Sequence (Q86WV6 140-379 H232R): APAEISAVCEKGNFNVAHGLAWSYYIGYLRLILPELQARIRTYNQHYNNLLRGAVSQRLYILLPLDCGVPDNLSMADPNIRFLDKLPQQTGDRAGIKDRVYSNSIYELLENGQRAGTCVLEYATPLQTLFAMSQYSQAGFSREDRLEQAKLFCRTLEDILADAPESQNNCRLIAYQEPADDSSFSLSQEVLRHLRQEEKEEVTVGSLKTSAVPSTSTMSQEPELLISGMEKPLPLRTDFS
Readout Type: WT_DSF_hSWAT Tm Shift (° C.)

> print(dat)
                                 smiles.code    observed.result
 1  CONC(=O)Cn1c2cc(C)ccc2c(=O)c2ccc(Cl)c(OC)c21  B (“B” = 0-2° C.)
 2  COc1c(Cl)ccc2c(=O)c3ccc(C4=CCCCC4)cc3n(CC(=O)O)c12    D (“D” > 7° C.)
 3  CSc1ccc2c(=O)c3ccc(Cl)c(Br)c3n(CC(=O)O)c2c1    D (“D” > 7° C.)
 4  C=CCOc1c(Cl)ccc2c(=O)c3ccccc3n(CC(=O)O)c12  C (“C” = 2-7° C,)
 5  CCOc1c(Cl)ccc2c(=O)c3ccc(C(C)C)cc3n(CC(=O)O)c12    D (“D” > 7° C.)
 6  COc1c(Cl)ccc2c(=O)c3ccc(NC4CCCC4)cc3n(CC(=O)O)c12    D (“D” > 7° C.)
 7  COc1ccc2c(c1C)c(=O)c1ccc(Cl)c(Cl)c1n2CC(=O)O    A (“A” < 0° C.)
 8  CC(C)c1ccc2c(=O)c3ccc(Cl)c(Br)c3n(CC(=O)O)c2c1    D (“D” > 7° C.)
 9  COc1c(Cl)ccc2c(=O)c3ccc(C4CCCCC4)cc3n(CC(=O)O)c12    D (“D” > 7° C.)
10  CSc1c(Cl)ccc2c(=O)c3ccc(C)cc3n(CC(=O)O)c12    D (“D” > 7° C.)
11  CS(=O)(=O)Nc1cccc(Nc2ccc3c(=O)c4ccc(Cl)c(Cl)c4n(CC(=O)O)c3c2)c1    D (“D” > 7° C.)
12  COc1c(Cl)ccc2c(=O)c3ccc(C4=CCCOC4)cc3n(CC(=O)O)c12    D (“D” > 7° C.)
13  O=C(O)Cn1c2cc(-c3cc[nH]n3)ccc2c(=O)c2ccc(Cl)c(Cl)c21  C (“C” = 2-7° C,)
14  COc1c(Cl)ccc2c(=O)c3ccc(Nc4ccccc4Cl)cc3n(CC(=O)O)c12    D (“D” > 7° C.)
15  CC(C)c1ccc2c(=O)c3ccc(I)c(Cl)c3n(CC(=O)O)c2c1  C (“C” = 2-7° C,)
16  COc1c(Cl)ccc2c(=O)c3ccc(C)cc3n(CC(=O)NS(C)(=O)=O)c12  C (“C” = 2-7° C,)
17  O=C(O)Cn1c2cc(C(O)(C(F)(F)F)C(F)(F)F)ccc2c(=O)c2ccc(Cl)c(Cl)c21    A (“A” < 0° C.)
18  COc1c(Cl)c(N)cc2c(=O)c3ccccc3n(CC(=O)O)c12  B (“B” = 0-2° C.)

====

Each entry below carries its reported IC50.
target: mSTING (Mus musculus, UniProt Q3TBT3)
Readout Type: IC50

> print(dat)
                                   compound  observed.result
1  Cc1ccc2c(=O)c3ccc(Cl)c(N(C)C)c3n(CC(=O)O)c2c1 [Compound 308]          < 20 µM
2  COc1c(Cl)ccc2c(=O)c3cc(N(C)C)c(C(C)C)cc3n(CC(=O)O)c12 [Compound 319]         > 300 µM
3  CC(C)Sc1c(Cl)ccc2c(=O)c3ccc(C(C)(C)C)cc3n(CC(=O)O)c12 [Compound 290]     20 to 100 µM
4  COc1c(Cl)c(O)cc2c(=O)c3ccccc3n(CC(=O)O)c12 [Compound 315]         > 300 µM
5  COc1c(Cl)ccc2c(=O)c3cc(O)c(C(C)C)cc3n(CC(=O)O)c12 [Compound 317]         > 300 µM
6  COc1c(Cl)ccc2c(=O)c3ccc(Nc4ccccc4OC(F)(F)F)cc3n(CC(=O)O)c12 [Compound 286]          < 20 µM
7  COc1c(Cl)ccc2c(=O)c3ccc(C(C)(C)C)cc3n(CC(=O)O)c12 [Compound 204]          < 20 µM
8  O=C(O)Cn1c2cc(-c3ccc(O)cc3)ccc2c(=O)c2ccc(Cl)c(Cl)c21 [Compound 223]          < 20 µM

====

molecular target: hSTING-WT (Homo sapiens (Human), UniProt Q86WV6, H232R); assay: Radiometric filtration binding competition assay, hSTING-WT
Sequence (Q86WV6 140-379 H232R): as above
Each entry below carries its reported IC50.
Readout Type: IC50

> print(dat)
                                    compound  observed.result
 1  CC(C)Oc1c(Cl)ccc2c(=O)c3ccc(C(C)(C)C)cc3n(CC(=O)O)c12 [Compound 225]          < 20 µM
 2  Cc1ccc2c(=O)c3ccc(Cl)c(N(C)C)c3n(CC(=O)O)c2c1 [Compound 308]          < 20 µM
 3  O=C(O)Cn1c2cc(N3CCc4ccccc43)ccc2c(=O)c2ccc(Cl)c(Cl)c21 [Compound 144]    100 to 300 µM
 4  O=C(O)Cn1c2cc(-c3ccco3)ccc2c(=O)c2ccc(Cl)c(Cl)c21 [Compound 186]     20 to 100 µM
 5  O=C(O)Cn1c2cc(-c3cccc(C(F)(F)F)c3)ccc2c(=O)c2ccc(Cl)c(Cl)c21 [Compound 161]     20 to 100 µM
 6  O=C(O)Cn1c2cc(NC3CCC3)ccc2c(=O)c2ccc(Cl)c(Br)c21 [Compound 175]     20 to 100 µM
 7  COc1cccc2c(=O)c3ccc(Cl)c(OC)c3n(CC(=O)O)c12 [Compound 333]         > 300 µM
 8  COc1c(Cl)ccc2c(=O)c3ccc(Nc4cccc5ccccc45)cc3n(CC(=O)O)c12 [Compound 297]          < 20 µM
 9  O=C(Cn1c2ccccc2c(=O)c2ccc(Cl)c(Cl)c21)NO [Compound 353]    100 to 300 µM
10  Cc1ccc(-c2ccc3c(=O)c4ccc(Cl)c(Cl)c4n(CC(=O)O)c3c2)cc1Cl [Compound 164]     20 to 100 µM
11  COc1c(Cl)ccc2c(=O)c3ccc(C)cc3n(CC(=O)O)c12 [Compound 280]     20 to 100 µM
12  CCSc1ccc2c(=O)c3ccc(Cl)c(OC)c3n(CC(=O)O)c2c1 [Compound 231]     20 to 100 µM
13  Cc1ccc2c(=O)c3ccc(Cl)cc3n([C@H](C)C(=O)O)c2c1 [Compound 179]    100 to 300 µM
14  COc1c(Cl)ccc2c(=O)c3ccc(-c4cccc(C)c4)cc3n(CC(=O)O)c12 [Compound 238]          < 20 µM
15  CONC(=O)Cn1c2cc(C)ccc2c(=O)c2ccc(Cl)c(OC)c21 [Compound 339]         > 300 µM
16  O=C(O)Cn1c2cc(-c3cccc(F)c3)ccc2c(=O)c2ccc(Cl)c(Cl)c21 [Compound 152]     20 to 100 µM
17  COc1cc2c(=O)c3ccc(Cl)c(OC)c3n(CC(=O)O)c2cc1C(C)C [Compound 318]    100 to 300 µM
18  O=C(O)Cn1c2cc(NC3CCCCC3)ccc2c(=O)c2ccc(Cl)c(Br)c21 [Compound 110]          < 20 µM
19  CSc1ccc2c(=O)c3ccc(Cl)c(Br)c3n(CC(=O)O)c2c1 [Compound 196]     20 to 100 µM
20  COc1c(Cl)ccc2c(=O)c3ccc(C4=CCCOC4)cc3n(CC(=O)O)c12 [Compound 252]     20 to 100 µM
21  CSc1c(Cl)ccc2c(=O)c3ccc(C(C)(C)C)cc3n(CC(=O)O)c12 [Compound 215]          < 20 µM
22  COc1c(Cl)ccc2c(=O)c3ccc(C4CCNCC4)cc3n(CC(=O)O)c12 [Compound 226]    100 to 300 µM
23  O=C(O)Cn1c2ccccc2c(=O)c2ccc(F)c(Br)c21 [Compound 173]         > 300 µM
24  CSc1c(Cl)ccc2c(=O)c3ccccc3n(CC(=O)O)c12 [Compound 212]    100 to 300 µM
25  CC(C)c1ccc2c3ccc(Cl)c(Cl)c3n(CC(=O)O)c2c1 [Compound 210]     20 to 100 µM
26  O=C(O)Cn1c2ccccc2c(=O)c2ccc(Cl)c(Oc3ccccc3)c21 [Compound 287]         > 300 µM
27  COc1c(Cl)ccc2c(=O)c3ccc(C4CCOCC4)cc3n(CC(=O)O)c12 [Compound 255]     20 to 100 µM
28  Cc1c(C(C)C)ccc2c(=O)c3ccc(Cl)c(Cl)c3n(CC(=O)O)c12 [Compound 193]     20 to 100 µM
29  O=C(O)Cn1c2cc(-c3cc[nH]n3)ccc2c(=O)c2ccc(Cl)c(Cl)c21 [Compound 182]    100 to 300 µM
30  CCS(=O)(=O)NC(=O)Cn1c2cc(C)ccc2c(=O)c2ccc(Cl)c(OC)c21 [Compound 349]         > 300 µM

Source: patent US11414387B2
